Consider the following compounds and their measured dose excreted at 6 h readings.
- Test Protocol: Urinary excretion of drug after rectal administration of suppositories to fasted rabbits (bioassay)
- Assay type: in vivo
- Measurement Context: rabbit, in vivo, 100 mg, rectal suppository, 100 mg in potency, base WITEPSOL H-5, additive Na caprate, 3%, read-out: Urinary excretion (0-6 hours)

Given Smiles	dose excreted at 6 h [%]
NCC[C@H](O)C(=O)N[C@@H]1C[C@H](N)[C@@H](O[C@H]2O[C@H](CN)[C@@H](O)[C@H](O)[C@H]2O)[C@H](O)[C@H]1O[C@H]1O[C@H](CO)[C@@H](O)[C@H](N)[C@H]1O	35
CNC[C@@H]1CC[C@@H](N)[C@@H](O[C@H]2[C@H](O)[C@@H](O[C@H]3OC[C@](C)(O)[C@H](NC)[C@H]3O)[C@H](N)C[C@@H]2N)O1	39.2

* * *

- Test Protocol: Blood concentration of drug after rectal administration of suppositories to fasted dogs (bioassay)
- Type: in vivo
- Measurement Context: dog, in vivo, 100 mg, rectal suppository, 100 mg in potency, base WITEPSOL H-5, additive Na caprate, 3% Sodium carbonate, 4%, read-out: AUC
Value Type: AUC (ng·h/mL)

> print(dat)
                               given.smiles  value.observed
1  CC(C)(O/N=C(\C(=O)N[C@@H]1C(=O)N2C(C(=O)[O-])=C(C[n+]3ccccc3)CS[C@H]12)c1csc(N)n1)C(=O)O           29800

* * *

- Test Protocol: Urinary excretion of drug after rectal administration of suppositories to fasted rabbits (bioassay)
- Format: in vivo
- Measurement Context: rabbit, urine, 100 mg, rectal suppository, 100 mg in potency, base WITEPSOL W-35, additive Glycerol monostearate, 3% Na caprate, 3%, read-out: Urinary excretion (0-6 hours)
Value Type: dose excreted at 6 h (%)

Given Smiles	Value Observed
NC[C@H]1O[C@H](O[C@H]2[C@H](O)[C@@H](O[C@H]3O[C@H](CO)[C@@H](O)[C@H](N)[C@H]3O)[C@H](N)C[C@@H]2N)[C@H](N)[C@@H](O)[C@@H]1O	48.5

* * *

- Test Protocol: Urinary excretion of drug after rectal administration of suppositories to fasted rabbits (bioassay)
- Assay type: in vivo
- Measurement Context: rabbit, in vivo, 100 mg, rectal suppository, 100 mg in potency, base WITEPSOL W-35, additive Na caprate, 3% Disodium tatrate, 4% NIKKOL BL-9, 4%, read-out: Urinary excretion (0-6 hours)
Value Type: dose excreted at 6 h

> print(dat)
                               given.smiles  value.observed
1  NC[C@H]1O[C@H](O[C@H]2[C@H](O)[C@@H](O[C@H]3O[C@H](CO)[C@@H](O)[C@H](N)[C@H]3O)[C@H](N)C[C@@H]2N)[C@H](N)C[C@@H]1O           49.2%

* * *

- Test Protocol: Urinary excretion of drug after rectal administration of suppositories to fasted rabbits (bioassay)
- Format: in vivo
- Measurement Context: rabbit, urine, 100 mg, rectal suppository, 100 mg in potency, base WITEPSOL H-15, additive Na caprate, 2%, read-out: Urinary excretion (0-6 hours)
Value Type: dose excreted at 6 h (%)

> print(dat)
                                   molecule            value.type  value.observed
1  CN[C@@H]1[C@@H](O)[C@@H](O[C@@H]2[C@@H](O)[C@H](O[C@H]3OC(CN)=CC[C@H]3N)[C@@H](N)C[C@H]2N)OC[C@]1(C)O [Sisomicin]  dose excreted at 6 h            30.8

* * *

- Test Protocol: Urinary excretion of drug after rectal administration of suppositories to fasted rabbits (bioassay)
- Assay type: in vivo
- Measurement Context: rabbit, in vivo, 100 mg, rectal suppository, 100 mg in potency, base WITEPSOL H-5, additive Na caprate, 3% NIKKOL BL-21, 4%, read-out: Urinary excretion (0-6 hours)
Value Type: dose excreted at 6 h (%)

> print(dat)
                               given.smiles  value.observed
1  CNC[C@@H]1CC[C@@H](N)[C@@H](O[C@H]2[C@H](O)[C@@H](O[C@H]3OC[C@](C)(O)[C@H](NC)[C@H]3O)[C@H](N)C[C@@H]2N)O1            50.3

* * *

- Test Protocol: Urinary excretion of drug after rectal administration of suppositories to fasted rabbits (bioassay)
- Assay type: in vivo
- Measurement Context: rabbit, in vivo, 100 mg, rectal suppository, 100 mg in potency, base WITEPSOL W-35, additive Na caprate, 2%, read-out: Urinary excretion (0-6 hours)
Value Type: dose excreted at 6 h

> print(dat)
                               given.smiles  value.observed
1  NC[C@H]1O[C@H](O[C@H]2[C@H](O)[C@@H](O[C@H]3O[C@H](CO)[C@@H](O)[C@H](N)[C@H]3O)[C@H](N)C[C@@H]2N)[C@H](N)C[C@@H]1O           41.6%
